Test system: Staphylococcus aureus MRSA ATCC 43300
ASSAY: Antibacterial activity (CMI)
Format: cell-based
MEASUREMENT SETUP: Gram +
READOUT TYPE: CMI

Query: CMI lookup needed for CCCCCCCCCC(C(=O)OCC)c1nc(C[C@H](O[C@@H]2O[C@H](CN)[C@@H](O)[C@H]2O)[C@H]2O[C@@H](n3ccc(=O)[nH]c3=O)[C@H](O)[C@@H]2O)no1 (mixture of isomers) [Compound 12h] , thanks.
Response: > 50 µg/mL

Query: CMI for CN[C@H](CC(C)C)C(=O)N[C@H]1C(=O)N[C@@H](CC(N)=O)C(=O)N[C@H]2C(=O)N[C@H]3C(=O)N[C@H](C(=O)N[C@H](C(=O)O)c4cc(O)cc(O)c4-c4cc3ccc4O)[C@H](O)c3ccc(c(Cl)c3)Oc3cc2cc(c3O[C@@H]2O[C@H](CO)[C@@H](O)[C@H](O)[C@H]2O[C@H]2C[C@](C)(N)[C@H](O)[C@H](C)O2)Oc2ccc(cc2Cl)[C@H]1O [Vancomycin, reference compound] ?
Response: 1 µg/mL

Query: Entry CCN1CCN(C(=O)N[C@@H](C(=O)N[C@@H]2C(=O)N3[C@@H]2SC(C)(C)[C@@H]3C(=O)O)c2ccccc2)C(=O)C1=O [Piperacillin, reference compound] has what CMI?
Response: > 128 µg/mL
